- TESTED_TARGET: MERTK (UniProt Q12866)
- Sequence (Q12866 whole entry, looked up): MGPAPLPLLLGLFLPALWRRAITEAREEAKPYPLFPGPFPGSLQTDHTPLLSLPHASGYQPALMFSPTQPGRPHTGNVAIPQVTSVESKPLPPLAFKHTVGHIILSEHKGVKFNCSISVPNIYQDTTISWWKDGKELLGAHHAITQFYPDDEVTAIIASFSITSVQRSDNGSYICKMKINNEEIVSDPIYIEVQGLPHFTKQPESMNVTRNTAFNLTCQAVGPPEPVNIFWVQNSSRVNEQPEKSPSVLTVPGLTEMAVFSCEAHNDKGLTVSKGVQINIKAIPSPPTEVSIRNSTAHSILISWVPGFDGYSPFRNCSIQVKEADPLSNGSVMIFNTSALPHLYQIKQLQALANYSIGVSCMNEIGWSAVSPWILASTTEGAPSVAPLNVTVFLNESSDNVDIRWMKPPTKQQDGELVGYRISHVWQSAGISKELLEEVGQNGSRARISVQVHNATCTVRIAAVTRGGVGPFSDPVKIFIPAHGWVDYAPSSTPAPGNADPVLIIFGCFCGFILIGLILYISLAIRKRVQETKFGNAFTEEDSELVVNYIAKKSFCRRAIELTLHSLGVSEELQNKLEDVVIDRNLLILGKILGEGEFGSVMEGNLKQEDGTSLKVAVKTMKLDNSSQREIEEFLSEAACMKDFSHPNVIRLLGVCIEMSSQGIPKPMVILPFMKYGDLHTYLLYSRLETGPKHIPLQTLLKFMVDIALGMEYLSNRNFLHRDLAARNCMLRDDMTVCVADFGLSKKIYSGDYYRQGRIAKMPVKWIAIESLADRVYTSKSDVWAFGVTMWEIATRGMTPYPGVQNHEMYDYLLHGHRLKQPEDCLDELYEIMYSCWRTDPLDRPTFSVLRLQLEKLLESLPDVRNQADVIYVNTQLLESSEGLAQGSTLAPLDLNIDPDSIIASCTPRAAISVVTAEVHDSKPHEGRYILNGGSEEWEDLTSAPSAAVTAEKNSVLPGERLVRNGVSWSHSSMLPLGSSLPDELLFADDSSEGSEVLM
- MEASUREMENT_DESCRIPTION: phosphorylation enrichment, bacterial display (enrichment ratio); higher = better substrate or ligand; peptides without Tyr show the background
Attribute: phosphorylation enrichment
OBSERVABLE: phosphorylation enrichment

> print(dat)
                     record.sequence                  observable  observed.result
 1     PLDGEYFTPQI [TP53_Y327_L330P]  phosphorylation enrichment            0.474
 2     TSKLSYLDPRI [TOP1_Y723_N722S]  phosphorylation enrichment            0.539
 3     RKLVDYDSAQH [BIN1_Y150_R154Q]  phosphorylation enrichment            0.565
 4            YIPSNYVAEDR [FRK_Y104]  phosphorylation enrichment            0.535
 5      LHSEAYLKFIE [PBRM1_Y1610_YF]  phosphorylation enrichment            0.556
 6          GVLDIYGFEIL [MYO1A_Y382]  phosphorylation enrichment             0.41
 7      ALDHKYHGGGG [HBB_Y146_A143D]  phosphorylation enrichment            0.381
 8      ALAHKYDGGGG [HBB_Y146_H147D]  phosphorylation enrichment             0.54
 9     LYYYSYLLKNH [PTEN_Y180_V175L]  phosphorylation enrichment             4.98
10    KALKQYRASPS [DDX27_Y763_G766S]  phosphorylation enrichment            0.401
11          HRLSTYTKMLF [CHST8_Y251]  phosphorylation enrichment            0.707
12  PQEVMYAQLDH [KIR3DL2_Y398_T397M]  phosphorylation enrichment             6.77
13   LAETSYVTVLE [MAGEA1_Y276_K278T]  phosphorylation enrichment            0.708
14  PSQRRNVFFFS [PTEN_Y174_Y174N_YF]  phosphorylation enrichment            0.571

====

SH2 binding enrichment values by entry
- TESTED_TARGET: Grb2 SH2 (UniProt P62993)
- Sequence (P62993 whole entry, looked up): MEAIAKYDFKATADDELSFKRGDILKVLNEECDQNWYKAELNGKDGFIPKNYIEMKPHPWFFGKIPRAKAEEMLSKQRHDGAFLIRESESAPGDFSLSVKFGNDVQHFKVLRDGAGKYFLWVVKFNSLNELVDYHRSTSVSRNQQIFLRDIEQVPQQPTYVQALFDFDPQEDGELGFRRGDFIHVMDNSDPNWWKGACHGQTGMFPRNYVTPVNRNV
- MEASUREMENT_DESCRIPTION: SH2 binding enrichment of the phosphorylated peptide, bacterial display (enrichment ratio); higher = better substrate or ligand; peptides without Tyr show the background
OBSERVABLE: SH2 binding enrichment

> print(dat)
                       record.sequence  observed.result
 1   NVADHYRVYKP [ATP6V0D2_Y271_G272R]            0.619
 2          NVGGKYSFLKV [GRM3_Y478_YF]             1.02
 3    RRSQSYNPTSG [PLEKHA2_Y185_I186N]            0.692
 4   HLLRIYFDITD [MMP27_Y307_W304L_YF]             0.85
 5             AKRKGYDMRVD [NEB_Y2770]            0.755
 6          IRFSDYVEVAD [PHACTR1_Y525]             1.01
 7         DKEKWYPLGNS [PIK3C2G_Y1438]             0.83
 8     VVDVTYDDVPI [FLNB_Y1308_E1305D]            0.822
 9        VDTLWYKFLKR [EPM2A_Y86_F84L]            0.943
10          RAADFYSQQMA [GBP6_Y334_YF]             0.69
11     KKRSVYIKVLF [CC2D2A_Y683_L684I]              1.1
12       CTTIPYNYMCN [TP53_Y234_H233P]            0.913
13    RAEAPYLLVSN [LRIG1_Y1054_Q1053P]            0.847
14      PQDSAYHSGIQ [FLG_Y3940_S3935P]            0.787
15       SSPQLYLVPFL [TAF4_Y652_P651L]             1.35
16       TSPKSCPSQKH [CAP2_Y316_Y316C]            0.971
17     GGFSRYDEGSG [RECQL5_Y484_D480G]            0.858
18            VATRWYRSPEL [CDKL5_Y177]             1.07
19      FGCTFYNQAIM [MCCC2_Y196_R193C]            0.685
20          RQSHNYLGGFA [SYK_Y47_R45H]            0.901
21       SLVVPYEPPEV [TP53_Y220_V216L]            0.789
22  GSERDYTFDEL [EIF2S2_Y174_E177D_YF]            0.919
23        HRNNNYEPNLF [BRCA2_Y57_K53R]            0.674
24      SYCYRYRCAPR [SUMF1_Y344_A348P]            0.625
25              NPPGMYPVTGP [LPP_Y346]            0.638
26            RSAGKYDVYLI [MECP2_Y120]            0.651
27       SFGESYDNSKS [MAN1B1_Y60_N59S]            0.928
28      PPAPRCHHSAV [LZTR1_Y119_Y119C]             1.31
29        TDLAYYLVREG [ASL_Y376_K380E]            0.751
30            LGSVVYAHSKE [KCNQ2_Y226]            0.809
31    CPTIHYNFMCN [TP53_Y234_T230P_YF]             1.41
32           SVNIRYLLFPS [SERAC1_Y548]             1.72
33         FSGQVYRQRRK [TH_Y230_D227G]            0.675
34             LSDGPYSNPYE [EPOR_Y485]             1.39
35           LNPVVYTLRNA [OR4C12_Y285]             0.77
36             REGAKYVSHGA [ASS1_Y113]            0.602
37             KLCHLYQDHMQ [WNT5A_Y86]             1.08
38            EEHIPYTHMNG [INSR_Y1361]            0.754
39             NGQAVYAACQT [XDH_Y1092]            0.685
40       ATATEYHTTSH [SLC4A1_Y46_D45E]                1
41            QMVGMYASSYM [AVPR2_Y124]            0.806
42       LEFGDCHPLKP [VPS35L_Y32_Y32C]            0.963
43     VNCHQYDGLVG [ATP2A2_Y407_E412G]            0.785
44       SVTCAYSPALN [TP53_Y126_T125A]            0.802
45       EFLKNYFTDKA [DSG2_Y775_R773K]            0.764
46       LLINKYGLSDH [SCP2_Y151_A155D]            0.939
47            VIESSYQVAKA [CPT1B_Y534]            0.906
48    AEFGLYAAMVR [VSX2_Y222_G223A_YF]            0.898
49    FARNCYVAGQF [G6PD_Y107_S106C_YF]            0.742
50              YIPSNYVAEDR [FRK_Y104]                1
51      MKGDYYCYLAE [YWHAG_Y131_R132C]            0.789
52           SSREGYVSHHN [FAM83B_Y433]             0.76
53             NAMRRYIEEFQ [MNS1_Y244]            0.847
54      IRNRDYDDIDD [TTYH2_Y424_T419I]            0.628
55            RRAKGYPIDLY [ITGB2_Y125]            0.707
56               PYRSIYFSSPK [MPG_Y75]            0.952
57            GKGGSYSKAEW [HLA-E_Y341]            0.949
58        DSMQSYDLDFP [UNC13B_Y243_YF]            0.782
